TESTED TARGET: T1, human insulin receptor extracellular domain protein (hIRB-ECD, Sino Biological Inc.) (human, UniProt P06213 28-956)
T1 construct: extracellular domain; Bought protein coated on the ELISA plate
T1 sequence (P06213 28-956 limits assumed, form in doubt): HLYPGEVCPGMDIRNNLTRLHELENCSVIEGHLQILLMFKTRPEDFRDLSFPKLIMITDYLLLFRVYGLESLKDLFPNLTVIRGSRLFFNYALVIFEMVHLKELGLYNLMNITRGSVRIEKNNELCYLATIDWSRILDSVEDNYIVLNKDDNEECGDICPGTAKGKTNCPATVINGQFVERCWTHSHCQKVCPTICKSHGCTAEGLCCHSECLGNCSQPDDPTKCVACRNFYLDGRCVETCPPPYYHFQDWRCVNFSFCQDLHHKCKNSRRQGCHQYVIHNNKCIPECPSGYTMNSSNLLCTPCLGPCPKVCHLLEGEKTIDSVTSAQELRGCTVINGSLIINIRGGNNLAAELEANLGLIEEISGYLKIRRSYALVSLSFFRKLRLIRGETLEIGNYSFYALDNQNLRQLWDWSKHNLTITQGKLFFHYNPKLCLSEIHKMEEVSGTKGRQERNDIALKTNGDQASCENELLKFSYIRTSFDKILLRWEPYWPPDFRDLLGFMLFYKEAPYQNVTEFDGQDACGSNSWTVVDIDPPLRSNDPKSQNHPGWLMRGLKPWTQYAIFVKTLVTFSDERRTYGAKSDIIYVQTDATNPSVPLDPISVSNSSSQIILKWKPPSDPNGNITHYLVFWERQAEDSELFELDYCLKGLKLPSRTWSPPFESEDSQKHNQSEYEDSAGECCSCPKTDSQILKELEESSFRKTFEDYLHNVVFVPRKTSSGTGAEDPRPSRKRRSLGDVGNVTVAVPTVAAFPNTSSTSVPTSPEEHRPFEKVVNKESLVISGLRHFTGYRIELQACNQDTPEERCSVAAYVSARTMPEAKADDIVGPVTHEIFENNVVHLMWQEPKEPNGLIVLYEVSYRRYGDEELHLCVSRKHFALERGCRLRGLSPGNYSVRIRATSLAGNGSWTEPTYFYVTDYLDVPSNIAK
TEST DESCRIPTION: ELISA, coated hIRB-ECD, anti-human IgG HRP detection
READOUT TYPE: EC50 (µM)

BINDER	MEASURED NUMBER
Insulin-Fc fusion protein of Example 8 (des B27-30+A3-A+A21G) (Fc fusion) FVNQHLCGSHLVEALYLVCGERGFFYGGVGGGGIAEQCCTSICSLYQLENYCGGGGGSGGGGSGGGGSGGGGSERKSSVESPPSPAPPVAGPSVFLFPPKPKDTLMISRTPEVTCVVVDVSQEDPEVQFNWYVDGVEVHNAKTKPREEQFNSTFRVVSVLTVLHQDWLNGKEYKCKVSNKGLPSSIEKTISKTKGQPREPQVYTLPPSREEMTKNQVSLTCLVKGFYPSDIAVEWESNGQPENNYKTTPPMLDSDGSFFLYSKLTVDKSRWQQGNVFSCSVMHEALHNHYTQKSLSLSLG	0.314
Insulin-Fc fusion protein of Example 7 (B25-T+B27-E A3-A+A21G) (Fc fusion) FVNQHLCGSHLVEALYLVCGERGFTYEPKTGGVGGGGIAEQCCTSICSLYQLENYCGGGGGSGGGGSGGGGSGGGGSERKSSVESPPSPAPPVAGPSVFLFPPKPKDTLMISRTPEVTCVVVDVSQEDPEVQFNWYVDGVEVHNAKTKPREEQFNSTFRVVSVLTVLHQDWLNGKEYKCKVSNKGLPSSIEKTISKTKGQPREPQVYTLPPSREEMTKNQVSLTCLVKGFYPSDIAVEWESNGQPENNYKTTPPMLDSDGSFFLYSKLTVDKSRWQQGNVFSCSVMHEALHNHYTQKSLSLSLG	0.699
Insulin-Fc fusion protein of Example 6 (B16-A+A3-A+A21G) (Fc fusion) FVNQHLCGSHLVEALALVCGERGFFYTPKTGGVGGGGIAEQCCTSICSLYQLENYCGGGGGSGGGGSGGGGSGGGGSERKSSVESPPSPAPPVAGPSVFLFPPKPKDTLMISRTPEVTCVVVDVSQEDPEVQFNWYVDGVEVHNAKTKPREEQFNSTFRVVSVLTVLHQDWLNGKEYKCKVSNKGLPSSIEKTISKTKGQPREPQVYTLPPSREEMTKNQVSLTCLVKGFYPSDIAVEWESNGQPENNYKTTPPMLDSDGSFFLYSKLTVDKSRWQQGNVFSCSVMHEALHNHYTQKSLSLSLG	0.445
Insulin-Fc fusion protein of Example 1 (B27E+A3-A+A21G) (Fc fusion) FVNQHLCGSHLVEALYLVCGERGFFYEPKTGGVGGGGIAEQCCTSICSLYQLENYCGGGGGSGGGGSGGGGSGGGGSERKSSVESPPSPAPPVAGPSVFLFPPKPKDTLMISRTPEVTCVVVDVSQEDPEVQFNWYVDGVEVHNAKTKPREEQFNSTFRVVSVLTVLHQDWLNGKEYKCKVSNKGLPSSIEKTISKTKGQPREPQVYTLPPSREEMTKNQVSLTCLVKGFYPSDIAVEWESNGQPENNYKTTPPMLDSDGSFFLYSKLTVDKSRWQQGNVFSCSVMHEALHNHYTQKSLSLSLG	0.16
Insulin-Fc fusion protein of Example 5 (B5-A+A21G) (Fc fusion) FVNQALCGSHLVEALYLVCGERGFFYTPKTGGVGGGGIVEQCCTSICSLYQLENYCGGGGGSGGGGSGGGGSGGGGSERKSSVESPPSPAPPVAGPSVFLFPPKPKDTLMISRTPEVTCVVVDVSQEDPEVQFNWYVDGVEVHNAKTKPREEQFNSTFRVVSVLTVLHQDWLNGKEYKCKVSNKGLPSSIEKTISKTKGQPREPQVYTLPPSREEMTKNQVSLTCLVKGFYPSDIAVEWESNGQPENNYKTTPPMLDSDGSFFLYSKLTVDKSRWQQGNVFSCSVMHEALHNHYTQKSLSLSLG	0.16
